# CC50 per entry
- PROCEDURE_DETAILS: In vitro cytotoxic concentration against MT-4 cells
- Type: cell-based, MT4
- CONDITION_DETAILS: human
// note: answer is a bare numeric in µM

The cases that follow already have their CC50 on record.
COC(=O)[C@@H](C)NP(=O)(COCCn1cnc2c(N)ncnc21)Oc1ccccc1 (stereo partly specified): 5.1
COC(=O)[C@@H](Cc1ccccc1)NP(=O)(CO[C@H](C)Cn1cnc2c(N)ncnc21)Oc1ccc(Cl)cc1 (stereo partly specified): 64
COC(=O)[C@H](C)NP(=O)(CO[C@H](C)Cn1cnc2c(N)ncnc21)Oc1ccccc1 (stereo partly specified): 213

Incoming: State the recorded CC50 for this entry: COC(=O)CNP(=O)(COCCn1cnc2c(N)ncnc21)Oc1ccccc1 (stereo unspecified)
Outgoing: 120

Incoming: State the recorded CC50 for this entry: COC(=O)[C@H](C)NP(=O)(COCCn1cnc2c(N)ncnc21)Oc1ccccc1 (stereo partly specified)
Outgoing: 120

----------
- PROCEDURE_DETAILS: In vitro cytotoxic concentration against CEM cells
- Format: cell-based, CCRF-CEM
- CONDITION_DETAILS: human
METRIC_NAME: log10 CC50 (log10 of the value in µM)
Units before log transform: µM; reported quantity: CC50; transform: log10.

The cases that follow already have their log10 CC50 on record.
COC(=O)[C@H](C)NP(=O)(COCCn1cnc2c(N)ncnc21)Oc1ccccc1 (stereo partly specified): 1.83
COC(=O)[C@@H](C)NP(=O)(COCCn1cnc2c(N)ncnc21)Oc1ccccc1 (stereo partly specified): 0.57
Nc1ncnc2c1ncn2CCOCP(=O)(O)O: 1.84
COC(=O)[C@@H](C)NP(=O)(CO[C@H](C)Cn1cnc2c(N)ncnc21)Oc1ccc(Cl)cc1 (stereo partly specified): 2.03
COC(=O)[C@@H](Cc1ccccc1)NP(=O)(CO[C@H](C)Cn1cnc2c(N)ncnc21)Oc1ccc(Cl)cc1 (stereo partly specified): 1.41
COC(=O)CNP(=O)(COCCn1cnc2c(N)ncnc21)Oc1ccccc1 (stereo unspecified): 1.90

Incoming: State the recorded log10 CC50 for this entry: COC(=O)[C@@H](C)NP(=O)(CO[C@H](C)Cn1cnc2c(N)ncnc21)Oc1ccccc1 (stereo partly specified)
Outgoing: 1.43

Incoming: State the recorded log10 CC50 for this entry: COC(=O)[C@H](C)NP(=O)(CO[C@H](C)Cn1cnc2c(N)ncnc21)Oc1ccccc1 (stereo partly specified)
Outgoing: 2.10

Incoming: State the recorded log10 CC50 for this entry: COC(=O)CNP(=O)(CO[C@H](C)Cn1cnc2c(N)ncnc21)Oc1ccccc1 (stereo partly specified)
Outgoing: 1.95

----------
- Tested on: CCRF-CEM
- PROCEDURE_DETAILS: In vitro antiviral activity against HIV-2 in CEM cells
- Assay type: functional, cell-based
- CONDITION_DETAILS: Homo sapiens
# pEC50 per entry
Convention used: pEC50 is expressed as -log10 of the molar concentration.

COC(=O)[C@@H](C)NP(=O)(CO[C@H](C)Cn1cnc2c(N)ncnc21)Oc1ccc(Cl)cc1 (stereo partly specified): 6.92

Incoming: State the recorded pEC50 for this entry: C[C@H](Cn1cnc2c(N)ncnc21)OCP(=O)(O)O [TENOFOVIR ANHYDROUS]
Outgoing: 5.44

Incoming: State the recorded pEC50 for this entry: COC(=O)[C@@H](C)NP(=O)(CO[C@H](C)Cn1cnc2c(N)ncnc21)Oc1ccccc1 (stereo partly specified)
Outgoing: 7.05

Incoming: State the recorded pEC50 for this entry: COC(=O)CNP(=O)(COCCn1cnc2c(N)ncnc21)Oc1ccccc1 (stereo unspecified)
Outgoing: 5.35

----------
- PROCEDURE_DETAILS: In vitro cytotoxic concentration against MT-4 cells
- Assay type: cell-based, MT4
- CONDITION_DETAILS: human
# CC50 per entry
// note: answer is a bare numeric in µM

The cases that follow already have their CC50 on record.
COC(=O)CNP(=O)(CO[C@H](C)Cn1cnc2c(N)ncnc21)Oc1ccccc1 (stereo not given in full): 102
COC(=O)[C@@H](C)NP(=O)(CO[C@H](C)Cn1cnc2c(N)ncnc21)Oc1ccc(Cl)cc1 (stereo not given in full): 57
COC(=O)[C@@H](C)NP(=O)(CO[C@H](C)Cn1cnc2c(N)ncnc21)Oc1ccccc1 (stereo not given in full): 71.4
C[C@H](Cn1cnc2c(N)ncnc21)OCP(=O)(O)O [TENOFOVIR ANHYDROUS]: 197

Let us examine a further case.
Incoming: State the recorded CC50 for this entry: Nc1ncnc2c1ncn2CCOCP(=O)(O)O
Outgoing: 144

----------
- Test system: CCRF-CEM
- PROCEDURE_DETAILS: In vitro antiviral activity against HIV-2 in CEM cells
- Assay type: functional, cell-based
- CONDITION_DETAILS: Homo sapiens
METRIC_NAME: EC50

C[C@H](Cn1cnc2c(N)ncnc21)OCP(=O)(Oc1ccccc1)Oc1ccccc1: 4000 nM

Incoming: State the recorded EC50 for this entry: COC(=O)[C@H](C)NP(=O)(COCCn1cnc2c(N)ncnc21)Oc1ccccc1 (some centres not stated)
Outgoing: 6000 nM

Incoming: State the recorded EC50 for this entry: Nc1ncnc2c1ncn2CCOCP(=O)(O)O
Outgoing: 10000 nM

Incoming: State the recorded EC50 for this entry: COC(=O)[C@@H](Cc1ccccc1)NP(=O)(CO[C@H](C)Cn1cnc2c(N)ncnc21)Oc1ccc(Cl)cc1 (some centres not stated)
Outgoing: 60 nM

Incoming: State the recorded EC50 for this entry: COC(=O)[C@H](C)NP(=O)(CO[C@H](C)Cn1cnc2c(N)ncnc21)Oc1ccccc1 (some centres not stated)
Outgoing: 380 nM

Incoming: State the recorded EC50 for this entry: COC(=O)CNP(=O)(CO[C@H](C)Cn1cnc2c(N)ncnc21)Oc1ccccc1 (some centres not stated)
Outgoing: 310 nM

Incoming: State the recorded EC50 for this entry: COC(=O)[C@@H](C)NP(=O)(COCCn1cnc2c(N)ncnc21)Oc1ccccc1 (some centres not stated)
Outgoing: 200 nM
